System: Escherichia coli
Test: Binding affinity to Escherichia coli MRE600 ribosome assessed as protection against N1-cyclohexyl-N3-(2-morpholino)ethylcarbodiimide p-toluenesulfonate-induced modifications at nucleotide U2506 in peptidyl transferase center of 23S rRNA at 50 uM by chemical footprinting relative to control
READOUT_LABEL: Activity

[
  {
    "CHEM_SMILES": "C=C[C@]1(C)C[C@@H](OC(=O)Cn2cc(CCCn3cnc4c(N)ncnc43)nn2)[C@]2(C)[C@H](C)CC[C@]3(CCC(=O)[C@@H]32)[C@@H](C)[C@@H]1O",
    "READOUT_LABEL": "Activity",
    "RECORDED_RESULT": 0.06
  },
  {
    "CHEM_SMILES": "C=C[C@]1(C)C[C@@H](OC(=O)Cn2cc(C[C@H](O)[C@@H]3O[C@H](n4cc(C)c(=O)[nH]c4=O)C[C@H]3O)nn2)[C@]2(C)[C@H](C)CC[C@]3(CCC(=O)[C@@H]32)[C@@H](C)[C@@H]1O",
    "READOUT_LABEL": "Activity",
    "RECORDED_RESULT": 0.09
  },
  {
    "CHEM_SMILES": "C=C[C@]1(C)C[C@@H](OC(=O)Cn2cc(CO[C@@H]3[C@H](O)[C@@H](CO)O[C@H]3n3ccc(=O)[nH]c3=O)nn2)[C@]2(C)[C@H](C)CC[C@]3(CCC(=O)[C@@H]32)[C@@H](C)[C@@H]1O",
    "READOUT_LABEL": "Activity",
    "RECORDED_RESULT": 0.14
  },
  {
    "CHEM_SMILES": "C=C[C@]1(C)C[C@@H](OC(=O)Cn2cc([C@]3(O)[C@@H](CO)O[C@@H](n4ccc(=O)[nH]c4=O)[C@@H]3O)nn2)[C@]2(C)[C@H](C)CC[C@]3(CCC(=O)[C@@H]32)[C@@H](C)[C@@H]1O",
    "READOUT_LABEL": "Activity",
    "RECORDED_RESULT": 0.03
  },
  {
    "CHEM_SMILES": "C=C[C@]1(C)C[C@@H](OC(=O)Cn2cc(CO[C@@H]3C[C@@H](n4cc(C)c(=O)[nH]c4=O)O[C@H]3CO)nn2)[C@]2(C)[C@H](C)CC[C@]3(CCC(=O)[C@@H]32)[C@@H](C)[C@@H]1O",
    "READOUT_LABEL": "Activity",
    "RECORDED_RESULT": 0.12
  }
]

----------
Test system: Escherichia coli
Test: Binding affinity to Escherichia coli MRE600 ribosome assessed as protection against N1-cyclohexyl-N3-(2-morpholino)ethylcarbodiimide p-toluenesulfonate-induced modifications at nucleotide U2585 in peptidyl transferase center of 23S rRNA at 50 uM by chemical footprinting relative to control
Please assign No whenever Activity is at or above 0.3, and Yes whenever it is below.

[
  {
    "CHEM_SMILES": "C=C[C@]1(C)C[C@@H](OC(=O)Cn2cc(CCCn3ccc(N)nc3=O)nn2)[C@]2(C)[C@H](C)CC[C@]3(CCC(=O)[C@@H]32)[C@@H](C)[C@@H]1O",
    "ASSIGNED_LABEL": "Yes"
  },
  {
    "CHEM_SMILES": "C=C[C@]1(C)C[C@@H](OC(=O)Cn2cc(COC[C@H]3O[C@@H](n4cc(C)c(=O)[nH]c4=O)C[C@@H]3O)nn2)[C@]2(C)[C@H](C)CC[C@]3(CCC(=O)[C@@H]32)[C@@H](C)[C@@H]1O",
    "ASSIGNED_LABEL": "No"
  },
  {
    "CHEM_SMILES": "C=C[C@]1(C)C[C@@H](OC(=O)Cn2cc(C[C@H](O)[C@@H]3O[C@H](n4cc(C)c(=O)[nH]c4=O)C[C@H]3O)nn2)[C@]2(C)[C@H](C)CC[C@]3(CCC(=O)[C@@H]32)[C@@H](C)[C@@H]1O",
    "ASSIGNED_LABEL": "No"
  },
  {
    "CHEM_SMILES": "C=C[C@]1(C)C[C@@H](OC(=O)Cn2cc(Cn3cc(C)c(=O)[nH]c3=O)nn2)[C@]2(C)[C@H](C)CC[C@]3(CCC(=O)[C@@H]32)[C@@H](C)[C@@H]1O",
    "ASSIGNED_LABEL": "No"
  },
  {
    "CHEM_SMILES": "C=C[C@]1(C)C[C@@H](OC(=O)Cn2cc(C[C@@H](O)[C@@H]3O[C@H](n4cc(C)c(=O)[nH]c4=O)C[C@H]3O)nn2)[C@]2(C)[C@H](C)CC[C@]3(CCC(=O)[C@@H]32)[C@@H](C)[C@@H]1O",
    "ASSIGNED_LABEL": "Yes"
  },
  {
    "CHEM_SMILES": "C=C[C@]1(C)C[C@@H](OC(=O)Cn2cc(CCCn3cnc4c(N)ncnc43)nn2)[C@]2(C)[C@H](C)CC[C@]3(CCC(=O)[C@@H]32)[C@@H](C)[C@@H]1O",
    "ASSIGNED_LABEL": "Yes"
  },
  {
    "CHEM_SMILES": "C=C[C@]1(C)C[C@@H](OC(=O)Cn2cc([C@]3(O)[C@H](O)[C@@H](CO)O[C@H]3n3ccc(=O)[nH]c3=O)nn2)[C@]2(C)[C@H](C)CC[C@]3(CCC(=O)[C@@H]32)[C@@H](C)[C@@H]1O",
    "ASSIGNED_LABEL": "No"
  },
  {
    "CHEM_SMILES": "C=C[C@]1(C)C[C@@H](OC(=O)Cn2cc(CCn3cc(C)c(=O)[nH]c3=O)nn2)[C@]2(C)[C@H](C)CC[C@]3(CCC(=O)[C@@H]32)[C@@H](C)[C@@H]1O",
    "ASSIGNED_LABEL": "No"
  },
  {
    "CHEM_SMILES": "C=C[C@]1(C)C[C@@H](OC(=O)Cn2cc(CO[C@@H]3[C@H](O)[C@@H](CO)O[C@H]3n3ccc(=O)[nH]c3=O)nn2)[C@]2(C)[C@H](C)CC[C@]3(CCC(=O)[C@@H]32)[C@@H](C)[C@@H]1O",
    "ASSIGNED_LABEL": "Yes"
  },
  {
    "CHEM_SMILES": "C=C[C@]1(C)C[C@@H](OC(=O)Cn2cc([C@]3(O)[C@@H](CO)O[C@@H](n4ccc(=O)[nH]c4=O)[C@@H]3O)nn2)[C@]2(C)[C@H](C)CC[C@]3(CCC(=O)[C@@H]32)[C@@H](C)[C@@H]1O",
    "ASSIGNED_LABEL": "Yes"
  }
]
